- Test system: NCI-H460
- PROTOCOL: NCI tumour cell line growth inhibition, 48 h
Active and inactive are the calls of the source. Cut-off read from the data, not from the text of the source: active = GI50 up to about 1.1 µM and inactive = higher.
Give measured GI50 for each item. Keep answers brief.

{"COMPOUND": "CSc1c(C(=O)Nc2ccc(C)cc2)c(N)nn1-c1ccccc1", "RECORDED_VALUE": "3.55 µM (inactive)"}
{"COMPOUND": "CC(=O)OCc1nc(C#N)c(N)o1", "RECORDED_VALUE": "> 100 µM (inactive)"}
{"COMPOUND": "CSc1ccc(-c2cc(-c3nc4ccccc4[nH]3)no2)cc1", "RECORDED_VALUE": "18.4 µM (inactive)"}

# map each compound to its GI50
1. CC(NC(=O)C(N)CC(=O)O)NC(=O)C1CCC1 (configuration not stated)
2. C/C(=N\NC(=O)C(N)=O)c1c(O)cc(C)oc1=O
3. COC(=O)c1c(-c2ccccc2)cc2c3cc(-c4ccccc4)c(C(=O)OC)n3c3ccccc3n12
4. Cn1c2ccccc2n2c(=O)c3cc([N+](=O)[O-])ccc3c(C#N)c12
5. CC1=CC(=O)C(=C(C)C)CC1
6. COc1cccc(C2=NC(C(C)C)CO2)c1 (configuration not stated)

> 100 µM (inactive)
> 100 µM (inactive)
> 100 µM (inactive)
> 100 µM (inactive)
> 100 µM (inactive)
> 100 µM (inactive)

Quick one: give me GI50 for each item below, same order please.
1. CC(C)C1OC(=O)C=C1Sc1ccccc1 (configuration not stated)
2. NC(=O)N1N=C2c3ccccc3CC[C@@H]2C1c1ccccc1 (some centres not stated)
3. O=C(O)/C=C/C(=O)N1Cc2cc3ccccc3nc2C1

["> 100 µM (inactive)", "> 100 µM (inactive)", "> 100 µM (inactive)"]

###

Exercise: for every item that follows, state its recorded GI50.
- System: XF498
- PROTOCOL: NCI tumour cell line growth inhibition, 48 h
Calls of active or inactive are those of the source. Cut-off read from the data, not from the text of the source: active = GI50 up to about 1.1 µM and inactive = higher.

These solved cases illustrate the format of a correct answer.
{"COMPOUND": "CC(=O)OC1COC(N2C(=O)C(=O)c3c(C)cc(Cl)nc32)C(OC(C)=O)C1OC(C)=O (stereo not given)", "RECORDED_VALUE": "> 100 µM (inactive)"}
{"COMPOUND": "O=C1C=C(Nc2ccc(Cl)cc2C(=O)c2ccccc2)c2ccccc2C1=O", "RECORDED_VALUE": "> 100 µM (inactive)"}
{"COMPOUND": "COC(=O)N/N=C(/c1nc2ccc([N+](=O)[O-])cc2nc1O)C(O)c1ccc(OC)c(OC)c1 (stereo not given)", "RECORDED_VALUE": "59.2 µM (inactive)"}
{"COMPOUND": "O=C1c2ccccc2C(=O)c2c1oc1cc(O)c(Cl)cc21", "RECORDED_VALUE": "7.41 µM (inactive)"}

Lab note: measured GI50 of `COc1ccc2c(c1OC)C(=O)C2` was > 100 µM (inactive)

###

- System: SK-MEL-5
- PROTOCOL: NCI tumour cell line growth inhibition, 48 h
The source made the active and inactive calls. Rule as the data show it: active = GI50 up to about 1.1 µM and inactive = higher.
Can you answer with just one of these options? active, inactive

Worked examples, 5 molecules total:
{"MOLECULE": "O=C1CC(CC(O)[C@@H]2CCCC[C@@H]2O)CC(=O)N1c1ccccc1 (stereo partly specified)", "CLASS_NAME": "inactive"}
{"MOLECULE": "CN(C)CCNc1ccc2c(=O)n(CCN(C)C)c(=O)n3c4ccccc4c(=O)c1c23", "CLASS_NAME": "active"}
{"MOLECULE": "Nc1ccc(Cn2ccc3c4c(N)nc(N)nc4ccc32)cc1", "CLASS_NAME": "active"}
{"MOLECULE": "CC(=O)Oc1c(OC(C)C)cc(=O)n2ccsc12", "CLASS_NAME": "inactive"}
{"MOLECULE": "CSc1c(C(=O)Nc2ccc(C)cc2)c(N)nn1-c1ccccc1", "CLASS_NAME": "inactive"}

Here's the next entry for you.
Per the records of this test, what outcome belongs to CC(Oc1ccccc1)C(=O)NNC(=O)OC(C)(C)C (stereo unspecified) ? inactive

###

- Tested on: HCC 2998
- PROTOCOL: NCI tumour cell line growth inhibition, 48 h
Activity calls are given as the source filed them. Rule as the data show it: active = GI50 up to about 1.1 µM and inactive = higher.
EXPERIMENTAL_READOUT: GI50

// below: answered molecules
{"MOLECULE": "NC(CCCCNC(=O)C(Cc1ccccc1)NC(=O)OCc1ccccc1)C(=O)NC(CCCCNC(=O)C(Cc1ccccc1)NC(=O)OCc1ccccc1)C(=O)NC(CCCCNC(=O)C(Cc1ccccc1)NC(=O)OCc1ccccc1)C(=O)NC(CCCCNC(=O)C(Cc1ccccc1)NC(=O)OCc1ccccc1)C(=O)NC(CCCCNC(=O)C(Cc1ccccc1)NC(=O)OCc1ccccc1)C(=O)NC(CCCCNC(=O)C(Cc1ccccc1)NC(=O)OCc1ccccc1)C(=O)O (stereo not drawn)", "RECORDED_VALUE": "> 100 µM (inactive)"}
{"MOLECULE": "OC/C=C/[C@H](OCc1ccccc1)[C@H](/C=C/CO)OCc1ccccc1", "RECORDED_VALUE": "50.2 µM (inactive)"}
{"MOLECULE": "CN1CCOC(c2ccccc2)O1 (stereo not drawn)", "RECORDED_VALUE": "> 100 µM (inactive)"}
{"MOLECULE": "OCCNCNc1nc(NCNCCO)nc(N(CNCCO)CNCCO)n1", "RECORDED_VALUE": "18.9 µM (inactive)"}
{"MOLECULE": "COC[C@@H]1[C@H]2OC(C)(C)O[C@H]2C(=O)N1C(=O)c1ccc(OC)cc1", "RECORDED_VALUE": "> 100 µM (inactive)"}
{"MOLECULE": "N#Cc1ccc(Oc2nc3ccc(C(F)(F)F)cc3nc2-c2ccccc2)cc1", "RECORDED_VALUE": "17 µM (inactive)"}
{"MOLECULE": "C=C(Br)CN(C#N)CC(=C)Br", "RECORDED_VALUE": "> 100 µM (inactive)"}

The molecule `Cc1ccc(C2=Nn3c(nc4sc(C)c(C)c4c3=O)SC2)cc1` showed GI50 equal to > 100 µM (inactive)

###

Kindly supply the reported GI50 values for the records listed here.
- System: HOP-62
- PROTOCOL: NCI tumour cell line growth inhibition, 48 h
The source made the active and inactive calls. No stated cut-off is given here; in the data, active = GI50 up to about 1.1 µM and inactive = higher.

Example entries begin here.
{"MOLECULE": "c1cc2nnc1SCCSCCSCCSc1ccc(nn1)SCCSCCSCCS2", "GI50": "44.9 µM (inactive)"}
{"MOLECULE": "Cc1nn(C(=O)Cc2ccccc2)c2c1C(c1ccc3ccccc3c1O)SC(=N)N2 (centres undefined)", "GI50": "> 100 µM (inactive)"}
{"MOLECULE": "CN1CCC/C1=N\\C#N", "GI50": "> 100 µM (inactive)"}
{"MOLECULE": "O=C1c2ccccc2-c2nc3ccc(O)cc3n21", "GI50": "> 100 µM (inactive)"}
{"MOLECULE": "COC(OC)(c1ccccc1)C(Br)Br", "GI50": "> 100 µM (inactive)"}

Required: GI50, one value per molecule below.
1. Oc1ccccc1/C=N/c1ccc(-c2nc3ccccc3s2)cc1
2. O=C(N/N=C/c1ccc(O)cc1)NNCCO
3. CCOC(=O)NC(=O)c1cn(CCCCCCOC(=O)NCCCCCCNC(=O)OCCCCCCn2cc(C(=O)NC(=O)OCC)c(=O)[nH]c2=O)c(=O)[nH]c1=O
4. C/C=C1/CN2CC[C@@H]3c4ccccc4N4[C@H](C(=O)OC)[C@H]1C[C@H]2[C@]34/C=C/C1=COC[C@@H]2[C@H]1C[C@H]1c3c(c4ccccc4n3C)C[C@@H]2N1C

1. 19.1 µM (inactive)
2. > 100 µM (inactive)
3. > 100 µM (inactive)
4. 3.82 µM (inactive)

###

- Tested on: UACC-62
- PROTOCOL: NCI tumour cell line growth inhibition, 48 h
The source made the active and inactive calls. No stated cut-off is given here; in the data, active = GI50 up to about 1.1 µM and inactive = higher.
Can you tell me GI50 for the items I'm about to list?

Worked cases, answers included:
{"COMPOUND": "CC(C)/C=C1\\CCC(CN2CCOCC2)C1=O (centres undefined)", "STUDY_SYSTEM": "UACC-62", "GI50": "18 µM (inactive)"}
{"COMPOUND": "Cc1ccc2c(c1)CN1c3ccc(C)cc3CN2C1c1ccccc1O", "STUDY_SYSTEM": "UACC-62", "GI50": "25.1 µM (inactive)"}
{"COMPOUND": "CCCCCC(=O)N[C@@H](c1ccccc1)C(O)C(=O)OC1C[C@@]2(O)C(OC(=O)c3ccccc3)C3[C@](C)(C(=O)[C@H](O)C(=C1C)C2(C)C)C(OC1OCC(O)C(O)C1O)C[C@H]1OC[C@@]31OC(C)=O (some centres undefined)", "STUDY_SYSTEM": "UACC-62", "GI50": "3.57 µM (inactive)"}
{"COMPOUND": "Cc1n[nH]c(=O)n1/N=C/c1cccc(Cl)c1", "STUDY_SYSTEM": "UACC-62", "GI50": "> 100 µM (inactive)"}
{"COMPOUND": "CCC/C=C/c1cc2c(cc1O)CC[C@@H]1[C@@H]2CC[C@]2(C)[C@@H](O)CC[C@@H]12", "STUDY_SYSTEM": "UACC-62", "GI50": "14.5 µM (inactive)"}

Hi, could you look up GI50 for each item in my list?
1. COc1ccc(C2Oc3ccc(O)cc3[C@@H]2C)cc1OC (some centres undefined)
2. CCOC(=O)O/C(=C\c1ccc(OC)cc1)c1c(OC(=O)OCC)n(C(=O)OCC)c2ccccc12
3. COc1cc(Br)c(CC2NCCc3cc(OC)c(OC)cc32)cc1OC (centres undefined)
4. Cc1cc(N(CCC#N)CCC#N)ccc1/C=C1\SC(=S)NC1=O

1: > 100 µM (inactive); 2: 42.7 µM (inactive); 3: 77.4 µM (inactive); 4: 48.6 µM (inactive)
